Consider the following molecules; for each one, report its Kp at 0.25 h.
- test_summary: Brain to plasma partition coefficient, Kp of the compound in cannulated Sprague-Dawley rat at 0.2 to 0.25 mg/kg, iv administered as cassette dose measured after 0.25 hrs by LC-MS/MS analysis
- Assay type: ADME, organism-based
- test_settings: brain and plasma
One number for each entry.

> print(dat)
                                chem.smiles  reported.property  observed.value
1  COc1cc(C(=O)Nc2cc(OC(F)(F)F)ccc2-n2cncn2)ccc1OC1CC1       Kp at 0.25 h             5.8
2  CCOc1ccc(C(=O)Nc2cc(OC(F)(F)F)ccc2-n2cncn2)cc1OC       Kp at 0.25 h             3.5
3  COc1ccc(C(=O)Nc2cc(OC(F)(F)F)ccc2-n2cncn2)cc1OC       Kp at 0.25 h             3.4
4  COc1cc(C(=O)Nc2cc(OC(F)(F)F)ccc2-n2cncn2)ccc1OC(C)C       Kp at 0.25 h             4.4

Please find the next molecule below.
Return reported Kp at 0.25 h. Input molecule: CCCOc1ccc(C(=O)Nc2cc(OC(F)(F)F)ccc2-n2cncn2)cc1OC 1.9

* * *

Can you tell me Kp uu at 0.25 h for the items I'm about to list?
- test_summary: Unbound brain to plasma concentration ratio in cannulated Sprague-Dawley rat at 0.2 to 0.25 mg/kg, iv administered as cassette dose measured after 0.25 hrs by LC-MS/MS analysis
- Assay type: ADME, organism-based
- test_settings: brain and plasma, read-out: K(p,uu,brain)

> print(dat)
                                chem.smiles  observed.value
1  COc1cc(C(=O)Nc2cc(OC(F)(F)F)ccc2-n2cncn2)ccc1OC(C)C            0.89
2  COc1cc(C(=O)Nc2cc(OC(F)(F)F)ccc2-n2cncn2)ccc1OC1CC1             1.5

# batch: return Kp uu at 0.25 h for each of the 3 compounds below
1. CCOc1ccc(C(=O)Nc2cc(OC(F)(F)F)ccc2-n2cncn2)cc1OC
2. CCCOc1ccc(C(=O)Nc2cc(OC(F)(F)F)ccc2-n2cncn2)cc1OC
3. COc1ccc(C(=O)Nc2cc(OC(F)(F)F)ccc2-n2cncn2)cc1OC

[0.83, 1, 0.48]

* * *

- test_summary: Drug level in C57/Bl6 mouse plasma at 10 mg/kg, ip by LC-MS/MS analysis
- Format: ADME, organism-based
- test_settings: in vivo
reported_property: concentration
Note: state the figure and append the unit.

Quick one: give measured concentration for COc1ccc(C(=O)Nc2cc(OC(F)(F)F)ccc2-n2cncn2)cc1OC 180 nM

* * *

- test_summary: Volume of distribution at steady state in cannulated Sprague-Dawley rat at 0.2 to 0.25 mg/kg, iv administered as cassette dose by LC-MS/MS analysis
- Type: ADME, organism-based
- test_settings: in vivo, read-out: Vdss
reported_property: Vd (L/kg)
Answers are plain numbers, in L/kg.

Provide only the value of recorded Vd for COc1ccc(C(=O)Nc2cc(OC(F)(F)F)ccc2-n2cncn2)cc1OC 6.2

* * *

- test_summary: Drug level in C57/Bl6 mouse brain at 10 mg/kg, ip by LC-MS/MS analysis
- Format: ADME, organism-based
- test_settings: in vivo, read-out: Drug uptake
reported_property: concentration

Output measured concentration for this item: COc1ccc(C(=O)Nc2cc(OC(F)(F)F)ccc2-n2cncn2)cc1OC 380 nM

* * *

- test_summary: Clearance in cannulated Sprague-Dawley rat at 0.2 to 0.25 mg/kg, iv administered as cassette dose by LC-MS/MS analysis
- Assay type: ADME, organism-based
- test_settings: in vivo
reported_property: clearance (mL/min/kg)
Give bare numbers, in mL/min/kg.

Name the recorded clearance of the compound listed here: COc1ccc(C(=O)Nc2cc(OC(F)(F)F)ccc2-n2cncn2)cc1OC 64.2

Hello, the source for this data is ChEMBL document CHEMBL4130599, in case you need it.
